Attribution: patent US20170129919A1

Target: xanthine oxidase (XO)
Assay: In vitro xanthine oxidase (XO) inhibiting action
Type: biochemical
Conditions: Table 3; PBS pH 7.5, xanthine substrate, absorbance at 295 nm after 30 minutes; mean±standard error; read-out: IC50 (Activity of Inhibiting XO of Phe-Containing Cyclic Dipeptides)
Experimental: The in vitro xanthine oxidase (XO) inhibiting action was studied on 210 kinds of cyclic dipeptides, linear dipeptides Tyr-Gly and Gly-Tyr, and an amino acid Tyr. […] Thereafter, 20 μL of a 250 μM xanthine solution previously dissolved in the PBS was added thereto, and the absorbance after 30 minutes was measured using a spectrophotometer (Synegy HT, manufactured by Bio Tek). […]
Property Measured: IC50

For orientation, consider the following solved cases.
Compound	IC50
O=C1NC(Cc2ccccc2)C(=O)NC1CS (centres unmarked) [Cyclo(Phe-Cys), reference compound]	133 µM
NC(=O)CC1NC(=O)C(Cc2ccccc2)NC1=O (centres unmarked) [Cyclo(Asn-Phe), reference compound]	> 300 µM

Please report the recorded IC50 for O=C1NC(Cc2ccccc2)C(=O)NC1Cc1ccccc1 (centres unmarked) [Cyclo(Phe-Phe), reference compound] .
> 100 µM

And what about the compound CSCCC1NC(=O)C(Cc2ccccc2)NC1=O (centres unmarked) [Cyclo(Met-Phe), reference compound] ?
> 100 µM
